# assayExplanation: NCI Yeast Anticancer Drug Screen. Data for the rad50 strain (AID 155);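 further: 0% = growth of vehicle-only cultures of the same strain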
# conditionContext: S. cerevisiae rad50 strain growth inhibition; at 5.0 µM (retest, dose inferred, filed as 0.5); hits give high values
Compounds without any hit were thinned out: in the full panel of roughly 79,000, 15% have a hit.
Label yes (1) when growth inhibition is at or above 20%; anything below gets no (0).

| molecule | classAssignment |
| --- | --- |
| Oc1c(O)c(Br)c(Br)c(Br)c1Br | yes (1) |
| C[CH2][Sn]([CH2]C(=O)OC)([CH2]C(=O)OC)[c]1ccccc1 | yes (1) |
| CC(C)[S-].CC(C)[S-].[Pt+2].c1ccc([PH+](c2ccccc2)c2ccccc2)cc1.c1ccc([PH+](c2ccccc2)c2ccccc2)cc1 | no (0) |
| CCCCCCCC(=O)[O][Hg][c]1ccccc1 | yes (1) |
| C#CC(O)(CC)CC | no (0) |
| CN(C)C(=S)Nc1nnc(NC23CC4CC(CC(C4)C2)C3)s1 | no (0) |
| C1OCC2[CH2][Hg][S][Hg][CH2]C1O2 | yes (1) |
| O=[N+]([O-])c1ccc(N2CCOCC2)c2c1no[n+]2[O-] | yes (1) |
| NC(=O)c1cc([N+](=O)[O-])c(Cl)c([N+](=O)[O-])c1Cl | yes (1) |
| CCOC(=O)[C]1([Pb]([CH3])([CH3])[CH3])N=NC(C(=O)OC)=C1C(=O)OC (centres undefined) | no (0) |
| COc1ccc([As+](c2ccccc2)(c2ccccc2)c2ccccc2)cc1 | yes (1) |
| COc1cc(C2c3[nH]c4ccccc4c3[C@@H](Nc3ccc(C#N)cc3)[C@H]3COC(=O)N23)cc(OC)c1O (some centres undefined) | no (0) |
| O=[As]c1ccccc1O (centres undefined) | no (0) |
| c1ccc(C[As](c2ccccc2)c2ccccc2)cc1 | yes (1) |

----------
Catalogue of growth inhibition readings, one per entry.
# assayExplanation: NCI Yeast Anticancer Drug Screen. Data for the mec2-1 strain (AID 157)
# conditionContext: S. cerevisiae mec2-1 strain, at 50.0 µM (retest, dose inferred, filed as 5.0), hits give high values
About 79,000 compounds went through this panel and 15% of them were active in at least one assay; those are over-represented in the sample as a whole.
observationType: growth inhibition (%)

| compound | observationType | val |
| --- | --- | --- |
| CCC[CH2][Sn-]([CH2]CCC)([CH2]CCC)[O]c1cc(Cl)c(Cl)cc1Cl | growth inhibition | 100 |
| COC(=O)C1c2c(C)cc3n2C(C=CC3)C1C(=O)OC (stereo not given) | growth inhibition | 96 |
| CN=C(N)N/N=C(\C)c1ccc2sc3ccc(/C(C)=N/NC(N)=NC)cc3c2c1 | growth inhibition | -2 |
| C/C(=N\NC(N)=O)C(CN1CCCCC1)C(c1ccccc1)c1c(O)c2ccccc2oc1=O (stereo not given) | growth inhibition | 15 |
| O=P(c1cccc(C(F)(F)F)c1)(c1cccc(C(F)(F)F)c1)c1cccc(C(F)(F)F)c1.O=P(c1cccc(C(F)(F)F)c1)(c1cccc(C(F)(F)F)c1)c1cccc(C(F)(F)F)c1.[Cl][Sn]([Cl])([Cl])[Cl] | growth inhibition | 83 |
| NS(=O)(=O)CCl.[Hg] | growth inhibition | 100 |
| COc1c(Br)cc(/C=C/[N+](=O)[O-])cc1Br | growth inhibition | 99 |
| O=C(CBr)NC1CCCCC1 | growth inhibition | 94 |
| Cc1ccc(OP(=O)(Oc2ccc(C)cc2)Oc2ccc(C)cc2)cc1.Cc1ccc(OP(=O)(Oc2ccc(C)cc2)Oc2ccc(C)cc2)cc1.Cc1ccc(OP(=O)(Oc2ccc(C)cc2)Oc2ccc(C)cc2)cc1.Cc1ccc(OP(=O)(Oc2ccc(C)cc2)Oc2cccc(C)c2)cc1.[Cd+2].[O-][Cl+3]([O-])([O-])O | growth inhibition | 33 |
| Cc1cc[n+](C2=C(Nc3c(C)cccc3C)C(=O)c3ccccc3C2=O)cc1 | growth inhibition | 61 |

----------
Catalogue of growth inhibition readings, one per entry.
# assayExplanation: NCI Yeast Anticancer Drug Screen. Data for the sgs1 mgt1 strain (AID 161);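 further: 0% = growth of cultures given vehicle only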
# conditionContext: S. cerevisiae sgs1 mgt1 strain, at 50.0 µM, hits give high values
Compounds without any hit were thinned out: in the full panel of roughly 79,000, 15% have a hit.
observationType: growth inhibition (%)

| compound | observationType | resultUnit | val |
| --- | --- | --- | --- |
| S=C(SSC(=S)N(Cc1ccccc1)Cc1ccccc1)N(Cc1ccccc1)Cc1ccccc1 | growth inhibition | % | 2.95 |
| CCO[C@@H]([CH2][Hg][Cl])[C@](C)([CH2][Hg][Cl])OCC | growth inhibition | % | 99.5 |
| NC(=O)C(F)(F)Cl | growth inhibition | % | -20.4 |
| CC[C@]12C=CCN3CC[C@@]4(c5ccc(OC)cc5N(C)[C@H]4[C@@](O)(C(=O)OC)[C@@H]1OC(C)=O)[C@@H]32 | growth inhibition | % | 18.3 |
| Cc1ccc(O)c(CN2CCN(Cc3cc(C)ccc3O)CC2)c1 | growth inhibition | % | 13.2 |
| CCN1CCC(O)(c2ccc(Cl)cc2)C(C(=O)c2ccc(Cl)cc2)C1 (stereo not drawn) | growth inhibition | % | 98.8 |
| O=c1c2ccccc2[nH]c(=S)n1-c1cccc(C(F)(F)F)c1 | growth inhibition | % | 77 |
| CN1CC(NC(=O)N(CCCl)N=O)CC2c3cccc4c3c(cn4N=O)CC21 (stereo not drawn) | growth inhibition | % | 21.4 |
| C[N+](C)(C)CC1CCCCC1=O (stereo not drawn) | growth inhibition | % | 17.9 |
| CCCN(CCC)c1c([N+](=O)[O-])cc(C(=O)N(CC)CC)cc1[N+](=O)[O-] | growth inhibition | % | 37.4 |
| CCCCCCCC(=O)[O][Hg][c]1ccccc1 | growth inhibition | % | 99.7 |
| CC(C)Oc1ccccc1OC(=O)N(C)C=O | growth inhibition | % | -6.8 |
| O=C(Oc1cc(Cl)c(S(=O)(=O)F)cc1Cl)c1ccccc1Cl | growth inhibition | % | 97.1 |

----------
# assayExplanation: NCI Yeast Anticancer Drug Screen. Data for the mec2-1 strain (AID 157)
# conditionContext: S. cerevisiae mec2-1 strain, at 50.0 µM, hits give high values
About 79,000 compounds went through this panel and 15% of them were active in at least one assay; those are over-represented in the sample as a whole.
observationType: growth inhibition (%)

| compound | resultUnit | val |
| --- | --- | --- |
| CC(=O)Oc1cccc2c1C(=O)C(C(=O)C=O)C1C(C=O)OC(C)(C)OC21C (stereo unspecified) | % | 0.1 |
| NC(=O)c1ccc(NN=O)nc1 | % | 0.9 |
| [N-]=[N+]=C1CNC(=O)NC1=O | % | -19.6 |
| O=[N+]([O-])c1ccc(/C=C/c2ccc(Cl)c(S(=O)(=O)F)c2)c(Cl)c1 | % | -4.95 |
| Clc1ccc([As](c2ccc(Cl)cc2)c2ccc(Cl)cc2)cc1 | % | 48.1 |
| COc1cc([N+](=O)[O-])c2ncccc2c1[N+](=O)[O-] | % | 52.4 |
| COc1ccc2nc3ccccc3nc2c1 (tested in a mixture with another compound) | % | 35.2 |
| CCCCC(Br)C(=O)OCC (stereo unspecified) | % | 6.55 |
| C[CH2][Sn]([O][Sn]([Cl])([CH2]C)[c]1ccccc1)[c]1ccccc1 (stereo unspecified) | % | 73.2 |
| Nc1ccccc1C(=O)Oc1ccccn1 | % | 8.9 |
| CCC[CH2][Sn]([CH2]CCC)([N]=C=S)[N]=C=S | % | 98 |
| Cc1cccc(NC(=O)C(=O)C2C(=O)NC(=O)NC2=O)c1C | % | 13.8 |
| CC1CN1c1nc(N2CC2C)nc(N2CC2C)n1 (stereo unspecified) | % | 13.6 |
| C[N+](C)(C)CC1Cc2ccccc2C1=O (stereo unspecified) | % | 93.2 |
| N#CC1C(=O)c2ccccc2C1=O | % | 4.15 |
| CC(=O)c1ccc([As]=O)cc1 (stereo unspecified) | % | 99.8 |
| CCOC(=O)C1C(=O)C(CN(CCCl)CCCl)C(=O)C(C(=O)OCC)C1c1cc(OC)c(OC)c(OC)c1 (stereo unspecified) | % | -8.05 |
| CC(=O)O.[RuH].c1ccc([PH+](c2ccccc2)c2ccccc2)cc1.c1ccc([PH+](c2ccccc2)c2ccccc2)cc1.c1ccc([PH+](c2ccccc2)c2ccccc2)cc1 | % | 70.9 |
| [Cl-].[Cl-].[Cl-].[O-]c1cccc2cccnc12.[O-]c1cccc2cccnc12.[O]=[Mo] | % | 91.4 |
| Cc1cc(Cl)nc(N)n1 | % | 4.55 |
| CC12CCC(OC3OC(CO)C(OC4OC(CO)C(O)C(O)C4O)C(O)C3O)CC1CCC1C2CCC2(C)C(C3=CC(=O)OC3)CCC12O (stereo unspecified) | % | -3.95 |
| CC1CN=C(Nc2ccc(F)c(Cl)c2)S1 (stereo unspecified) | % | -16.1 |
| O=C1[C@@H]2[C@H](C(=O)N1c1ccccc1)[C@H]1CC[C@H]2N1C(=O)c1ccccc1 | % | 17.4 |
| [Cl][Pt+2][Cl].[NH-]c1ccc(Cl)cc1[NH-] | % | -11.9 |
| CCN(CCCl)c1cc(C(=O)NCCCN(C)CCCNC(=O)c2cc(N(CC)CCCl)c([N+](=O)[O-])cc2[N+](=O)[O-])c([N+](=O)[O-])cc1[N+](=O)[O-] | % | -2.9 |
| CC/C(=C/c1ccc(OC)cc1OC)[N+](=O)[O-] | % | 99.7 |
| CCCCCCCCCCCCCCCCCC[N+](C)(C)C (tested in a mixture with another compound) | % | 13.1 |
| CCC(=O)C1(c2ccccc2)CCN(C)CC1 | % | -35.7 |
| C[N+](C)=c1nc(N2CCc3ccccc3C2)ss1 | % | 37 |
| CC(C)OC(=S)S.[Cu+2] | % | -6.7 |
| CO[C](=[W])c1ccccc1.[C-]#[O+].[C-]#[O+].[C-]#[O+].[C-]#[O+].[C-]#[O+] | % | -0.6 |
| CC(N)C(O)c1ccc(O)cc1 (stereo unspecified) | % | -12 |
| CCCCc1ccc(N=C(N)N)cc1 | % | 9.35 |
| Cc1cc(N(CCCl)CCCl)ccc1C=Nc1ccccc1F | % | -5.4 |
| CC(=O)OC1=CCC2(C)C(CCC3C4CCC(OC(C)=O)C4(C)CCC32)C1=O (stereo unspecified) | % | 79.4 |
| COc1ccc2[nH]cc(CCN)c2c1 | % | -12.4 |
| CC(=O)O.CC(=O)O.CC(=O)O.CC(=O)O.[Cu].[Cu] | % | 20.2 |
| OC(CN(C1CCCCC1)C1CCCCC1)c1ccc(Cl)c(Cl)c1 (stereo unspecified) | % | -30.9 |
| CC(=O)NNc1ccccc1 | % | 66.2 |
| CCN1C(=O)C(=C/C=C/C=C2/N(C)c3ccccc3C2(C)C)C(=O)N(CC)C1=S | % | -8.25 |
| Cc1cc([N+](=O)[O-])c2ccccc2[n+]1[O-] | % | 99.5 |
